- Test system: OVCAR-8 ovarian
- assay-explanation: NCI tumour cell line growth inhibition, 48 h
measured-endpoint: TGI

Study these solved cases before continuing.
>  <compound>
COc1ccc(Cc2cc(OC)c(OC)c(OC)c2)cc1

>  <recorded-measurement>
27 µM

$$$$
>  <compound>
CC(C)(C)C(O)CC(O)(C(F)(F)F)C(F)(F)F (stereo not drawn)

>  <recorded-measurement>
> 100 µM

$$$$
>  <compound>
[N-]=[N+]=NCCCn1c2c(c3ccc([N+](=O)[O-])cc3c1=O)C(=O)c1cc(I)ccc1-2

>  <recorded-measurement>
> 100 µM

$$$$

Using the record for O=C(NC1CCN(Cc2ccccc2)CC1)c1cccc(I)c1 , report its TGI. > 100 µM

Using the record for CC1NC(C(=O)O)Cc2cc(O)c(O)cc21 (stereo not drawn) , report its TGI. > 100 µM

Using the record for O=C[C@]12CC=C3OC4OC5(CCCCC5)OC4[C@H]3[C@H]1C(=O)C=CC2=O (stereo partly drawn) , report its TGI. 34.6 µM

Using the record for O=C(/C=C\c1cc(Br)ccc1O)/C=C/c1cc(Br)ccc1O , report its TGI. 11.6 µM

Using the record for COc1ccc(C2=NN(C=O)C(c3ccc(OS(=O)(=O)c4ccc(C)cc4)c(OC)c3)C2)cc1 (stereo not drawn) , report its TGI. > 100 µM
